system-under-test: T1, cynomolgus DLL3 (cynomolgus, UniProt A0A2K5WSR1 27-490)
T1 construct: also called cyDLL3
T1 sequence: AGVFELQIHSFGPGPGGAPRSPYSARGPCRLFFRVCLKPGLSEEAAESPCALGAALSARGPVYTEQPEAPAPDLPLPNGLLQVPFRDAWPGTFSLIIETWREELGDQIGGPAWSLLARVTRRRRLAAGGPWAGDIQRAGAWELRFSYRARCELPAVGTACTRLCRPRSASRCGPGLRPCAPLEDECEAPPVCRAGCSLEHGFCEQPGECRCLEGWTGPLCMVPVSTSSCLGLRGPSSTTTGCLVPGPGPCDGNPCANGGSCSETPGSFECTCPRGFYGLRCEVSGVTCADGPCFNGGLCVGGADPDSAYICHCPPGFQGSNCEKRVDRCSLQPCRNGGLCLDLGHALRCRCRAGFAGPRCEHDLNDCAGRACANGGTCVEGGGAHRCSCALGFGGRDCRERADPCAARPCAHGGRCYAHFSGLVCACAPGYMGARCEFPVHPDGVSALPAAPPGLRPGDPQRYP
test-name: Octet BLI, single 60 nM
Measured pKd accompanies every entry in the list below.
Scale for pKd: -log10 of concentration given in mol/L; no unit attached.

Below are worked cases with known answers.
binder	pKd
2E05 anti-DLL3 trispecific protein (other, not shown: linker 1808, anti-albumin sdAb, linker 1808, anti-CD3 fragment, His6 1819) EVQLVESGGGLVQPGGSLTLSCVASGSPSSINAYGWYRRAPGKQRELVAGISSDGSKVYSDSVKGRFTISRDNAKNSVYLQMNSLRAEDTAVYYCYYFRTVSGSSMSYWGQGTLVTVSS	8.32
1A011 anti-DLL3 trispecific protein (other, also called 1A11; not shown: linker 1808, anti-albumin sdAb, linker 1808, anti-CD3 fragment, His6 1819) EVQLVESGGGLVQPGGSLTLSCVASGSTSSINAIGWYRRAPGKQRELVAGISSDGSKVYIDSVKGRFTISRDNAKNSVYLQMNSLRAEDTAVYYCYYFRTVSGSSYRYWGQGTLVTVSS	8.44
4H011 anti-DLL3 trispecific protein (other, also called 4H11; not shown: linker 1808, anti-albumin sdAb, linker 1808, anti-CD3 fragment, His6 1819) EVQLVESGGGLVQPGGSLTLSCAASGSSVSRLSMAWYRQAPGKKRELVAGISVDGSTDYIDSVKGRFTISRDNAKNSVYLQMNSLRAEDTAVYYCYAYRWTTRLTYWGQGTLVTVSS	8.24

Request: Entry 3A02 anti-DLL3 trispecific protein (other, not shown: linker 1808, anti-albumin sdAb, linker 1808, anti-CD3 fragment, His6 1819) EVQLVESGGGLVQPGGSLTLSCAASGSSVSFLSLAWYRQAPGKKRELVAGISADGSTAYIDSVKGRFTISRDNAKNSVYLQMNSLRAEDTAVYYCYAYRWRTRYTYWGQGTLVTVSS : reported pKd = ?
Result: 8.02
